Hey, just so you know, these numbers are from patent US12209087B2.

Target: full length AKT E17K (Homo sapiens, UniProt P31749, E17K)
Construct: host or cells: HEK-293 (ATCC CRL-1573)
Sequence (P31749 whole entry E17K): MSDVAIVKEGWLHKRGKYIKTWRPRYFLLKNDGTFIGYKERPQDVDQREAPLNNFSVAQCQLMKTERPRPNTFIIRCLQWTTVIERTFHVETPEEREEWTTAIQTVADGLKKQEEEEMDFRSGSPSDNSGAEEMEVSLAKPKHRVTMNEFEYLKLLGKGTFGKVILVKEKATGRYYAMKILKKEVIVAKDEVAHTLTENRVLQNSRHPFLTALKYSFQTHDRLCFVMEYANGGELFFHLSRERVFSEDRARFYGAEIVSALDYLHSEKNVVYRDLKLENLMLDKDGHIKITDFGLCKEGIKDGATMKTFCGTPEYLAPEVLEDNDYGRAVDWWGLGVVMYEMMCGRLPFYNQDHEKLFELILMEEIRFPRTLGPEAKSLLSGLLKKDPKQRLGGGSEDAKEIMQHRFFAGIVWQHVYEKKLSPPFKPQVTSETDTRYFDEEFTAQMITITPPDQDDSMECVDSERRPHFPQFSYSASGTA
Assay: NanoBRET Target Engagement (TE) Assay
Type: cell-based
Conditions: competitive tracer displacement in living cells, read-out: AKT1 E17K IC50
pIC50: −log10 of the molar value.
value-kind: pIC50

Take a look at these entries with their results.
[[record]]
molecule = "N#Cc1ccc(C(=O)N2CCN(Cc3ccc(-n4c(-c5cccnc5N)nc5cccnc54)cc3)CC2)cn1"
meas_value = "5.00 to 6.22"

[[record]]
molecule = "N#Cc1cc(N2CC3CCC2CN3Cc2ccc(-n3c(-c4cccnc4N)nc4ccc(-c5ccccc5)nc43)cc2)ncn1 (stereo not shown)"
meas_value = "6.22 to 7.22"

[[record]]
molecule = "N#Cc1cncnc1C(=O)NC1CCN(Cc2ccc(-n3c(-c4cccnc4N)nc4ccc(-c5ccccc5)nc43)cc2)CC1"
meas_value = "7.22 to 7.82"


Please find the next molecule below.
Provide one value: measured pIC50 of N#Cc1nc2cc(C(=O)NC3CCN(Cc4ccc(-n5c(-c6cccnc6N)nc6cccnc65)cc4)CC3)ccc2s1 6.22 to 7.22

---

Molecular target: full length AKT E17K (Homo sapiens, UniProt P31749, E17K)
Construct: host or cells: HEK-293 (ATCC CRL-1573)
Test: NanoBRET Target Engagement (TE) Assay
Type: cell-based
Conditions: competitive tracer displacement in living cells, read-out: AKT1 E17K IC50
value-kind: IC50

[[record]]
compound = "N#Cc1ccnc(NC2CCN(Cc3ccc(-n4c(-c5cccnc5N)nc5ccc(-c6ccccc6)nc54)cc3)CC2)c1 [Example 87]"
meas_value = "60 to 600 nM"


Provide one value: measured IC50 of N#Cc1ccncc1C(=O)NCc1ccc(-n2c(-c3cccnc3N)nc3cccnc32)cc1 [Example 100] 600 to 10000 nM

Provide one value: measured IC50 of N#Cc1cccc(OC2CCN(Cc3ccc(-n4c(-c5cccnc5N)nc5cc(-c6ccccc6)cnc54)cc3)CC2)n1 [Example 10] 600 to 10000 nM

Provide one value: measured IC50 of N#Cc1ccc(C(=O)NC2CCN(Cc3ccc(-n4c(-c5cccnc5N)nc5ccc(-c6ccccc6)nc54)cc3)CC2)nc1 [Example 81] 60 to 600 nM

---

Target: full length AKT E17K (Homo sapiens, UniProt P31749, E17K)
Construct: host or cells: HEK-293 (ATCC CRL-1573)
Experiment: NanoBRET Target Engagement (TE) Assay
Type: cell-based
Details: competitive tracer displacement in living cells, read-out: AKT1 E17K IC50
value-kind: IC50

Take a look at these entries with their results.
[[record]]
compound = "N#Cc1cccc(C(=O)NCc2ccc(-n3c(-c4cccnc4N)nc4cccnc43)cc2)n1"
value_kind = "IC50"
meas_value = "600 to 10000 nM"

[[record]]
compound = "N#Cc1nccc(N2CCN(Cc3ccc(-n4c(-c5cccnc5N)nc5ccc(-c6ccccc6C#N)nc54)cc3)CC2)n1"
value_kind = "IC50"
meas_value = "< 15 nM"

[[record]]
compound = "N#Cc1ncccc1C(=O)NCc1ccc(-n2c(-c3cccnc3N)nc3cccnc32)cc1"
value_kind = "IC50"
meas_value = "600 to 10000 nM"


Provide one value: measured IC50 of N#Cc1nccc(NC2CCN(Cc3ccc(-n4c(-c5cccnc5N)nc5ccc(-c6cccc(=O)[nH]6)nc54)cc3)CC2)n1 < 15 nM

Provide one value: measured IC50 of N#Cc1nccc(N2CCN(Cc3ccc(-n4c(-c5cccnc5N)nc5ccc(N6CCCNC(=O)C6)nc54)cc3)CC2)n1 60 to 600 nM
